- SYSTEM_NAME: UniProtKB Q02156
- Sequence (Q02156 whole entry): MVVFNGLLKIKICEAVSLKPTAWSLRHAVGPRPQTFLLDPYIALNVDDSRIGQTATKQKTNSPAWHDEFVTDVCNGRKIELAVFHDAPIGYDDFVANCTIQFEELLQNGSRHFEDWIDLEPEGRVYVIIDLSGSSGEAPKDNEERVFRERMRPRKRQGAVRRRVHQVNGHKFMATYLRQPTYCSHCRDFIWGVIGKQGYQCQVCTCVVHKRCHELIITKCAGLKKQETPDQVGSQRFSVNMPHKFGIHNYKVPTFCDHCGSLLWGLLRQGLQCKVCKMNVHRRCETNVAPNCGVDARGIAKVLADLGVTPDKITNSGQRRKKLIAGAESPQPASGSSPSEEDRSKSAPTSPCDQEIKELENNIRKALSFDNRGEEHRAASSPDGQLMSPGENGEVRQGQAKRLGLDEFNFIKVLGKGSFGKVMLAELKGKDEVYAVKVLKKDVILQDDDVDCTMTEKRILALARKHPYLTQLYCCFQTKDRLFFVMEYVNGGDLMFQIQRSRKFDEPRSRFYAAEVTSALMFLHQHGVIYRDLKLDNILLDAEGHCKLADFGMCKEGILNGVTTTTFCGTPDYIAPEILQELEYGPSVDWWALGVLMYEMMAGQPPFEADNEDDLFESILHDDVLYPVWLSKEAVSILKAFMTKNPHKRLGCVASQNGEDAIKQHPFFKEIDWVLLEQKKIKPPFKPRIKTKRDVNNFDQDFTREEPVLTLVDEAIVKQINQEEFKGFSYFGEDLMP
I'd be grateful if you could share measured IC50 for these entries.
Give bare numbers, in nM.

[[record]]
mol = "CN(C)Cc1ccc2ccc(Cl)c(C3=C(c4c[nH]c5ccccc45)C(=O)NC3=O)c2c1"
observed = 182

[[record]]
mol = "COCCNCc1ccc2ccc(Cl)c(C3=C(c4cn(C)c5ccccc45)C(=O)NC3=O)c2c1"
observed = 110

[[record]]
mol = "CN(C)Cc1ccc2ccc(Cl)c(C3=C(c4cn(C)c5ccccc45)C(=O)NC3=O)c2c1"
observed = 402


Batch of 2 molecules: report IC50 for each.
1. CNCc1ccc2ccc(Cl)c(C3=C(c4cn(C)c5ccccc45)C(=O)NC3=O)c2c1
2. CN(C)Cc1ccc2c(C3=C(c4cn(C)c5ccccc45)C(=O)NC3=O)c(Cl)ccc2c1

Solution:
30
18

====

- SYSTEM_NAME: Protein kinase C alpha type (Homo sapiens, UniProt P17252)
I'd be grateful if you could share measured IC50 for these entries.

[[record]]
mol = "CN(C)Cc1ccc2ccc(Cl)c(C3=C(c4cn(C)c5ccccc45)C(=O)NC3=O)c2c1"
observed = "4 nM"

[[record]]
mol = "CC(C)NCc1ccc2ccc(Cl)c(C3=C(c4cn(C)c5ccccc45)C(=O)NC3=O)c2c1"
observed = "2.7 nM"

[[record]]
mol = "Cc1ccc2ccc(CN)cc2c1C1=C(c2c[nH]c3ccccc23)C(=O)NC1=O"
observed = "49 nM"

[[record]]
mol = "CN(C)Cc1ccc2c(C3=C(c4cn(C)c5ccccc45)C(=O)NC3=O)c(Cl)ccc2c1"
observed = "3.7 nM"

[[record]]
mol = "COCCNCc1ccc2ccc(Cl)c(C3=C(c4cn(C)c5ccccc45)C(=O)NC3=O)c2c1"
observed = "2.8 nM"


Batch of 5 compounds: report IC50 for each.
1. CNCc1ccc2ccc(Cl)c(C3=C(c4cn(C)c5ccccc45)C(=O)NC3=O)c2c1
2. CC(=O)N(C)Cc1ccc2ccc(Cl)c(C3=C(c4cn(C)c5ccccc45)C(=O)NC3=O)c2c1
3. Cn1cc(C2=C(c3c(Cl)ccc4ccc(CN5CCC5)cc34)C(=O)NC2=O)c2ccccc21
4. CN(Cc1ccc2ccc(Cl)c(C3=C(c4cn(C)c5ccccc45)C(=O)NC3=O)c2c1)C1CC1
5. Cn1cc(C2=C(c3c(Cl)ccc4ccc(CN)cc34)C(=O)NC2=O)c2ccccc21

Solution:
1: 0.5 nM; 2: 63 nM; 3: 3.4 nM; 4: 63 nM; 5: 4.7 nM
